B1: PPEF2 (parent)
chain: AFKAAALIQRWYRRYVARLEMRRR

Variants of: B1
assay.text: protein stability index of a GFP-peptide fusion (GPS, HEK-293T) (PSI 1-6); higher = more stable;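 note: lentivirally expressed fusions sorted by FACS into six bins by GFP to DsRed ratio, PSI derived from sequencing read proportions per bin multiplied by bin number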
condition.parameters: c terminus: a fixed tail appended
Threshold check on protein stability index: at or above 3 gives criterion met, strictly below gives criterion not met.

[
  {
    "variant.string": "A17V",
    "qualitative.label": "criterion met"
  },
  {
    "variant.string": "A5H",
    "qualitative.label": "criterion not met"
  },
  {
    "variant.string": "I8K",
    "qualitative.label": "criterion met"
  },
  {
    "variant.string": "A5N",
    "qualitative.label": "criterion not met"
  },
  {
    "variant.string": "F2E",
    "qualitative.label": "criterion met"
  },
  {
    "variant.string": "A1P",
    "qualitative.label": "criterion met"
  },
  {
    "variant.string": "A17R",
    "qualitative.label": "criterion met"
  },
  {
    "variant.string": "L7A",
    "qualitative.label": "criterion met"
  },
  {
    "variant.string": "R10T",
    "qualitative.label": "criterion not met"
  },
  {
    "variant.string": "E20Y",
    "qualitative.label": "criterion met"
  }
]

Please look at the following variant next.
Exam item: Record "W11F" ; criterion: protein stability index no lower than 3. Met?
Marked response: criterion met
